Target: UniProtKB P43235
Sequence (P43235 whole entry): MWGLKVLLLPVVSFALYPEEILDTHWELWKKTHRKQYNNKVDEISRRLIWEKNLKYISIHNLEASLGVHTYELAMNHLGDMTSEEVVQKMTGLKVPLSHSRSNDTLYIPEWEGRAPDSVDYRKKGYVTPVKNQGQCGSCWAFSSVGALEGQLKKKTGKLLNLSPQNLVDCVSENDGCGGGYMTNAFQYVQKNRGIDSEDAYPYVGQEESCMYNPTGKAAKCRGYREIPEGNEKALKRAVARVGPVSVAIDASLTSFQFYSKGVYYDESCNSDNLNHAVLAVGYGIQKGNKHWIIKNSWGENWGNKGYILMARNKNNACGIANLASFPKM
Experiment: Inhibition of human recombinant CatK assessed as suppression of enzyme-mediated Z-Phe-Arg-AMC cleavage incubated for 1 hrs by QFRET assay
valueKind: IC50

Here's what some known entries look like.
| smilesRepr | IC50 |
| --- | --- |
| N#CCNC(=O)[C@@H]1CCCC[C@H]1C(=O)N1CCc2[nH]c3ccc(F)cc3c2C1 | < 1 nM |
| N#CC1(NC(=O)[C@@H]2CCCC[C@H]2C(=O)N2CCc3[nH]c4c(F)cccc4c3C2)CC1 | < 1 nM |

Kindly review the next compound as well.
IC50 for N#CC1(NC(=O)[C@@H]2CCCC[C@H]2C(=O)N2CCc3[nH]c4ccc(F)cc4c3C2)CC1 is < 1 nM

---

# pIC50 per entry
Target: Cathepsin B (Homo sapiens, UniProt P07858)
Experiment: Inhibition of human recombinant CatB assessed as suppression of enzyme-mediated Z-Arg-Arg-AMC cleavage by QFRET assay
Units for pIC50: none; it is -log10 of a concentration expressed in mol/L.

| smilesRepr | pIC50 |
| --- | --- |
| C[C@H](C#N)NC(=O)[C@@H]1CCCC[C@H]1C(=O)N1CCc2[nH]c3ccc(F)cc3c2C1 | 4.35 |
| CN(C)C(=O)[C@@H]1CCCC[C@H]1C(=O)NCC#N | 5.01 |

pIC50 for N#CCNC(=O)[C@@H]1CCCC[C@H]1C(=O)N1CCN(c2ccccc2)CC1 is 6.34

pIC50 for C[C@@H](C#N)NC(=O)[C@@H]1CCCC[C@H]1C(=O)N1CCc2[nH]c3ccc(F)cc3c2C1 is 4.13

pIC50 for CC(C)(C)[C@@H](C#N)NC(=O)[C@@H]1CCCC[C@H]1C(=O)N1CCc2[nH]c3ccc(F)cc3c2C1 is 4.51

---

Biological target: Cathepsin S (Homo sapiens, UniProt P25774)
Sequence (P25774 whole entry): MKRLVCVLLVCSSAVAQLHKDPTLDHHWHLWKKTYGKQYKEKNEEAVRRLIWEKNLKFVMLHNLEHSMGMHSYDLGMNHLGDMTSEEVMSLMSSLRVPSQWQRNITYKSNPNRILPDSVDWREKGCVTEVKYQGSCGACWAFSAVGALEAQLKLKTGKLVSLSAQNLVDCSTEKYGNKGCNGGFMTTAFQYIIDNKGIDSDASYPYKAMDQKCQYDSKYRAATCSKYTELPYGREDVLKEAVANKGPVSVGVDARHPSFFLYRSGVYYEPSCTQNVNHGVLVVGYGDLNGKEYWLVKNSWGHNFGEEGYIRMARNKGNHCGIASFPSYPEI
Assay: Inhibition of human recombinant CatS assessed as suppression of enzyme-mediated Z-Val-Val-Arg-AMC cleavage by QFRET assay
pIC50: −log10 of the molar value.
valueKind: pIC50

| smilesRepr | pIC50 |
| --- | --- |
| Cc1cccc2c3c([nH]c12)CCN(C(=O)[C@@H]1CCCC[C@H]1C(=O)NC1(C#N)CC1)C3 | < 5.40 |
| COc1ccc2[nH]c3c(c2c1)CN(C(=O)[C@@H]1CCCC[C@H]1C(=O)NC1(C#N)CC1)CC3 | < 5.40 |
| N#CC1(NC(=O)[C@@H]2CCCC[C@H]2C(=O)N2CCc3[nH]c4ccc(F)cc4c3C2)CC1 | < 5.40 |
| N#CC1(NC(=O)[C@@H]2CCCC[C@H]2C(=O)N2CCc3[nH]c4c(C(F)(F)F)cccc4c3C2)CC1 | < 5.40 |

pIC50 for Cn1c2c(c3c(F)c(F)ccc31)CN(C(=O)[C@@H]1CCCC[C@H]1C(=O)NC1(C#N)CC1)CC2 is < 5.40

pIC50 for C[C@H](C#N)NC(=O)[C@@H]1CCCC[C@H]1C(=O)N1CCc2[nH]c3ccc(F)cc3c2C1 is < 4.00

pIC50 for N#CC1(NC(=O)[C@@H]2CCCC[C@H]2C(=O)N2CCc3[nH]c4c(F)cccc4c3C2)CC1 is < 5.40

pIC50 for N#CCNC(=O)[C@@H]1CCCC[C@H]1C(=O)N1CCN(c2ccccc2)CC1 is 5.99

pIC50 for N#CC1(NC(=O)[C@@H]2CCCC[C@H]2C(=O)N2CCc3[nH]c4cccc(F)c4c3C2)CC1 is < 5.40

---

# pIC50 per entry
Biological target: Cathepsin S (Homo sapiens, UniProt P25774)
Experiment: Inhibition of human recombinant CatS assessed as suppression of enzyme-mediated Z-Val-Val-Arg-AMC cleavage by QFRET assay
pIC50: −log10 of the molar value.

Here's what some known entries look like.
| smilesRepr | pIC50 |
| --- | --- |
| CN1CCN(C(=O)[C@@H]2CCCC[C@H]2C(=O)NCC#N)CC1 | 5.68 |
| CC(C)(F)C[C@H](N[C@@H](c1ccc(-c2ccc(S(C)(=O)=O)cc2)cc1)C(F)(F)F)C(=O)NC1(C#N)CC1 | 6.74 |
| CC(C)(C)[C@@H](C#N)NC(=O)[C@@H]1CCCC[C@H]1C(=O)N1CCc2[nH]c3ccc(F)cc3c2C1 | < 4.00 |
| N#CC1(NC(=O)[C@@H]2CCCC[C@H]2C(=O)N2CCc3[nH]c4cc(F)ccc4c3C2)CC1 | < 5.40 |

Given the compound N#Cc1cccc2c3c([nH]c12)CCN(C(=O)[C@@H]1CCCC[C@H]1C(=O)NC1(C#N)CC1)C3 and test system Cathepsin S (Homo sapiens, UniProt P25774), the measured pIC50 is < 5.40

Given the compound CS(=O)(=O)c1ccc2c3c([nH]c2c1)CCN(C(=O)[C@@H]1CCCC[C@H]1C(=O)NC1(C#N)CC1)C3 and test system Cathepsin S (Homo sapiens, UniProt P25774), the measured pIC50 is < 5.40

---

# IC50 per entry
Target: Cathepsin S (Homo sapiens)
Experiment: Inhibition of human recombinant CatS assessed as suppression of enzyme-mediated Z-Val-Val-Arg-AMC cleavage by QFRET assay

| smilesRepr | IC50 |
| --- | --- |
| CS(=O)(=O)c1ccc2[nH]c3c(c2c1)CN(C(=O)[C@@H]1CCCC[C@H]1C(=O)NC1(C#N)CC1)CC3 | > 4 µM |
| N#CCNC(=O)[C@@H]1CCCC[C@H]1C(=O)N1CCCCC1 | 2.11 µM |

Kindly review the next compound as well.
IC50 for N#CC1(NC(=O)[C@@H]2CCCC[C@H]2C(=O)N2CCc3[nH]c4c(OC(F)(F)F)cccc4c3C2)CC1 is > 4 µM
